- Tested on: NCI-H1792
- ASSAY METHOD TEXT: relative viability (nuclei count vs DMSO), 5 days (fraction); higher = more cells survive
- PARTICULARS: first compound 0.4 µM
Reported relative viability values for a set of compounds
Answer with a bare number; do not write a unit.

O=C(O)c1ccc(-c2c[nH]c3ncc(-c4ccccc4)cc23)cc1C1CCCC1 + CC(C)C[C@H](NC(=O)[C@H](Cc1ccccc1)NC(=O)c1cnccn1)B(O)O [Bortezomib] (partner 0.002 µM) | 1.04
O=C(O)c1ccc(-c2c[nH]c3ncc(-c4ccccc4)cc23)cc1C1CCCC1 + N=C(N)NC(=N)NCCc1ccccc1 [Phenformin] (partner 250 µM) | 0.353
O=C(O)c1ccc(-c2c[nH]c3ncc(-c4ccccc4)cc23)cc1C1CCCC1 + Nc1ncn([C@H]2C[C@H](O)[C@@H](CO)O2)c(=O)n1 [Decitabine] (partner 2 µM) | 0.543
O=C(O)c1ccc(-c2c[nH]c3ncc(-c4ccccc4)cc23)cc1C1CCCC1 + CC1(C)CCC(c2ccc(Cl)cc2)=C(CN2CCN(c3ccc(C(=O)NS(=O)(=O)c4ccc(N[C@H](CCN5CCOCC5)CSc5ccccc5)c(S(=O)(=O)C(F)(F)F)c4)cc3)CC2)C1 [Navitoclax] (partner 0.5 µM) | 0.661
O=C(O)c1ccc(-c2c[nH]c3ncc(-c4ccccc4)cc23)cc1C1CCCC1 + CC(=O)Nc1cccc(-n2c(=O)n(C3CC3)c(=O)c3c(Nc4ccc(I)cc4F)n(C)c(=O)c(C)c32)c1 [Trametinib] (partner 0.02 µM) | 0.407

# returns recorded relative viability (system: NCI-H1792) for O=C(O)c1ccc(-c2c[nH]c3ncc(-c4ccccc4)cc23)cc1C1CCCC1 + O=C(c1cc(Cc2n[nH]c(=O)c3ccccc23)ccc1F)N1CCN(C(=O)C2CC2)CC1 [Olaparib] (partner 8 µM)
0.446

# returns recorded relative viability (system: NCI-H1792) for O=C(O)c1ccc(-c2c[nH]c3ncc(-c4ccccc4)cc23)cc1C1CCCC1 + Cc1nc(NC(=O)N2CCC[C@H]2C(N)=O)sc1-c1ccnc(C(C)(C)C(F)(F)F)c1 [Alpelisib] (partner 2 µM)
0.688

Recorded values, source the supplement of paper PMC10307832.
